MEASUREMENT PROTOCOL: NCI Yeast Anticancer Drug Screen. Data for the mlh1 rad18 strain (AID 175)
TEST CONTEXT: S. cerevisiae mlh1 rad18 strain growth inhibition; at 50.0 µM; active compounds read high
Experimental: Growth inhibition of yeast strains with defined genetic alterations is measured as a screen for potential anti-cancer activity. Selected strains with alterations in DNA damage repair or cell cycle control were exposed to compounds and growth inhibition was measured relative to vehicle treated controls. The strain used in this assay is mlh1 rad18
The panel holds about 79,000 compounds, 15% with a hit somewhere; the sample as a whole holds those more often.
PROPERTY NAME: growth inhibition (%)
Reply numerically in %, unit not repeated.

Worked cases, growth inhibition given:
>>> val("Cc1cc(NC(=S)SCc2ccc3c(c2)OCO3)ccc1Cl")
90.2
>>> val("COc1ccc2nc3cccc([N+](=O)[O-])c3c(NCCO)c2c1")
87.8

For this molecule ( N#CSCC(=O)c1ccc2ccccc2c1 ), measured growth inhibition is 91.3
